Every entry's value here was drawn from paper PMC11834790.

Test: Alamar blue (resazurin) cell viability, RWPE-1
Assay type: cell-based
Conditions: human, RWPE-1 cells, 48 h, of the control
Description: LNCaP and RWPE-1 cells were plated in 96-well plates at 10 000 cells per well and incubated overnight at 37 °C with 5% CO2. VCaP cells were plated at 12 000 cells per well under the same conditions. […] Cell viability was measured using the Alamar Blue assay. […] The plates were incubated in the dark at 37 °C for 4 h, and fluorescence was measured at an excitation wavelength of 550 nm and an emission wavelength of 590 nm. Cell viability was calculated relative to control sample treated with DMSO. […]

Compound	viability at 48 h, 10 µM, %
C[C@]12CC[C@H](O)CC1=CC[C@@H]1[C@@H]2CC[C@]2(C)C(c3cccnc3)=CC[C@@H]12 [ABT, abiraterone, reference compound]	66
c1cncc(-c2cccc(-c3ccc4[nH]ccc4c3)c2)c1 [Compound 12, 5-(3-(Pyridin-3-yl)phenyl)-1H-indole]	85

---

Reported Androstendione, Mean is given for each of the following molecules.
Tested on: adrenal steroidogenesis in NCI-H295R cells
Experiment: Steroid profiling by LC-MS in NCI-H295R cells
Format: cell-based, human
Conditions: compounds at 10 µM, 1 µM pregnenolone, DMSO 7.577
Measured Attribute: Androstendione, Mean (nmol/L)

Molecule	Target Entity	Experimental Result
N#Cc1c(-c2ccncc2)cc(-c2ccc3[nH]ccc3c2)c(C#N)c1N	adrenal steroidogenesis in NCI-H295R cells	1.3725
c1cc(-c2ccncc2)cc(-c2ccc3[nH]ccc3c2)c1	adrenal steroidogenesis in NCI-H295R cells	1.359
C[C@]12CC[C@H](O)CC1=CC[C@@H]1[C@@H]2CC[C@]2(C)C(c3cccnc3)=CC[C@@H]12 [ABT, abiraterone, reference compound]	adrenal steroidogenesis in NCI-H295R cells	1.5465
N#Cc1c(-c2ccncc2)cc(-c2ccc3[nH]ccc3c2)nc1N	adrenal steroidogenesis in NCI-H295R cells	1.4095
CCCn1nnc2cc(-c3cc(-c4ccncc4)c(C#N)c(N)n3)ccc21	adrenal steroidogenesis in NCI-H295R cells	1.564

---

Target: CYP17A1 (Homo sapiens)
Construct: immortalised human adrenal cells expressing CYP17A1 and other steroidogenic enzymes; endogenous in cells; host or cells: NCI-H295R (human adrenal cells)
Assay: CYP17A1 17,20-lyase activity assay in NCI-H295R cells (tritiated water release)
Format: cell-based
Conditions: 4 h, DMSO = 100, read-out: CYP17A1 Lyase activity, Mean (percentage of activity remaining relative to the control)
Simple rule here: remaining activity at 10 µM less than 50% is TRUE, otherwise FALSE.

Molecule Smiles	Target Entity	Classification
N#Cc1c(-c2ccncc2)cc(-c2ccncc2)c(C#N)c1N	CYP17A1 (Homo sapiens)	FALSE
N#Cc1c(-c2ccccc2)cc(-c2ccccc2)nc1N	CYP17A1 (Homo sapiens)	FALSE
c1cc(-c2ccncc2)cc(-c2ccc3[nH]ccc3c2)c1	CYP17A1 (Homo sapiens)	TRUE
N#Cc1c(-c2cccnc2)cc(-c2cccnc2)c(C#N)c1N	CYP17A1 (Homo sapiens)	FALSE
